Target chain: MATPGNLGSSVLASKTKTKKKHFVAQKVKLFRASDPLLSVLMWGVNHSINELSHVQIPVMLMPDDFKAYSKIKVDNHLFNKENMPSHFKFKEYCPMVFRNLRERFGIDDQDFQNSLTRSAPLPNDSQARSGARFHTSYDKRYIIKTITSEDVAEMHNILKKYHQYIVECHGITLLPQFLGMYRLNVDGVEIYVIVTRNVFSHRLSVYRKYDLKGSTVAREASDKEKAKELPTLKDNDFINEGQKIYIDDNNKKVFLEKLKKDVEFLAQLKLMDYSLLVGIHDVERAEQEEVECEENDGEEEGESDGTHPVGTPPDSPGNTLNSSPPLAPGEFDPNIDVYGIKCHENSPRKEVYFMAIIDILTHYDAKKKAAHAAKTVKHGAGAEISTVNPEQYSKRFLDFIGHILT
pIC50: −log10 of the molar value.
Experimental Readout: pIC50

O=C1CCCN1c1ccc(-c2cncc(-c3ccncc3)c2)cc1 :: < 5.30
CN(C)C(=O)c1ccc(-c2cc(-c3ccnc4[nH]c(C(=O)NCC(F)(F)F)cc34)cnc2N)nc1 :: 6.00 to 7.00

Task: What value of pIC50 has been recorded for this entry: `O=C(NCC1CC1)c1cc2c(-c3cncc(-c4ccc(N5CCCC5=O)cc4)c3)ccnc2o1`
Result: 7.00 to 8.00

Task: What value of pIC50 has been recorded for this entry: `O=C(NCCc1ccccn1)c1cc2c(-c3cncc(-c4ccc(N5CCCC5=O)cc4)c3)ccnc2[nH]1`
Result: 6.00 to 7.00

Task: What value of pIC50 has been recorded for this entry: `O=C(NCCc1nccs1)c1cc2c(-c3cncc(-c4ccc(N5CCCC5=O)cc4)c3)ccnc2[nH]1`
Result: 6.00 to 7.00

Task: What value of pIC50 has been recorded for this entry: `COCCNC(=O)c1cc2c(-c3cnc(N)c(-c4ccc(N5CCCC5=O)cc4)c3)ccnc2o1`
Result: 7.00 to 8.00
